Form field: Inhibition rate (%) (one value per entry).
Target: T1, human LAG-3 protein with hFc tag (hLAG-3-hFc protein) (human, UniProt P18627 23-450)
T1 construct: also called immunogen 1; LAG-3 extracellular domain protein; not shown: human IgG Fc fragment (hFc) of the pCpC vector
T1 sequence: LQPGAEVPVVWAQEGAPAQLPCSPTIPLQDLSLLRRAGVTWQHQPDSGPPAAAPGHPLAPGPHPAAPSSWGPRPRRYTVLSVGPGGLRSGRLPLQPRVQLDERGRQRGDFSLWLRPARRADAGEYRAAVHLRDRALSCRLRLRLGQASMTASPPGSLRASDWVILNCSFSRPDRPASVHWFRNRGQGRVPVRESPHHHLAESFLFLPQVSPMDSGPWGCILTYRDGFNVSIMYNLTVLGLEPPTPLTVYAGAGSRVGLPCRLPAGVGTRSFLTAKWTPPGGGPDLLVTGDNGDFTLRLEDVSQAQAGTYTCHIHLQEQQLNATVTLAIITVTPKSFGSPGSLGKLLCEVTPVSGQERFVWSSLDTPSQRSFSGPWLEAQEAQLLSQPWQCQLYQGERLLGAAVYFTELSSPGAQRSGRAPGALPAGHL
Assay: FACS, blocks LAG-3-hFc binding to MHC II on Raji; 0.823 nM
Protocol: The FACS reaction plate incubating the Raji cells was centrifuged to discard the supernatant. The above mixture was added as 100 μl per well to Raji cells and incubated on ice for 1-2 hours. […] The plate was washed 2-3 times by centrifugation with blocking solution (PBS, 2% fetal bovine serum), added with 100 microliters of PBS per well to suspend cells, and detected using FACS (FACS Calibur, BD) and the results were analyzed. […]

{"binder": "409D4E10 (mouse antibody purified from hybridoma) (antibody, V domains shown, also called mAb112-409D4E10) VH: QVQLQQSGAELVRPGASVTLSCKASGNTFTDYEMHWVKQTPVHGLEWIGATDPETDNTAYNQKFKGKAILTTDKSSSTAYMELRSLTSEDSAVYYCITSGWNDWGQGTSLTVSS VL: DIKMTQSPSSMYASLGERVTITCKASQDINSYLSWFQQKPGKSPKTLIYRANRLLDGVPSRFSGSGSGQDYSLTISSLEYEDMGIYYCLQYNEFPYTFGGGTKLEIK", "unitsLabel": "%", "Inhibition rate (%)": 18.2}
{"binder": "405B8H3 (mouse antibody purified from hybridoma) (antibody, V domains shown, also called mAb103-405B8H3; 405B81-13) VH: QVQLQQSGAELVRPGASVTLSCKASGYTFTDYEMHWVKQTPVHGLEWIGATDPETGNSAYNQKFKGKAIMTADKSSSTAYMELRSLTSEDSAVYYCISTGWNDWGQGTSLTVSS VL: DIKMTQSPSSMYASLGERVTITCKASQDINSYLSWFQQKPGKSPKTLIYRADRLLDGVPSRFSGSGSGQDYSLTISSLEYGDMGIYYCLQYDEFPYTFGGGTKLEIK", "unitsLabel": "%", "Inhibition rate (%)": 10.9}
{"binder": "105F1E10 (mouse antibody purified from hybridoma) (antibody, V domains shown, also called mAb009-105F1E10) VH: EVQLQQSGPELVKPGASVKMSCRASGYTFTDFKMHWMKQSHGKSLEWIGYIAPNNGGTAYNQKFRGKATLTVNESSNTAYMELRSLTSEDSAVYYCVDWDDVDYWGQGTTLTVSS VL: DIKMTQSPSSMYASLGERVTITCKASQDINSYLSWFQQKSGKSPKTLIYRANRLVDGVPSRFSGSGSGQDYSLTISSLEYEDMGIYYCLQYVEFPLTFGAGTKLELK", "unitsLabel": "%", "Inhibition rate (%)": 7}
{"binder": "409B11E12 (mouse antibody purified from hybridoma) (antibody, V domains shown, also called mAb104-409B11E12) VH: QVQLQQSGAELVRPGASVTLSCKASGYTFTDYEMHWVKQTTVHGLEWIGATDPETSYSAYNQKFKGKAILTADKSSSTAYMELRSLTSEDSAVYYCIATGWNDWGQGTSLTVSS VL: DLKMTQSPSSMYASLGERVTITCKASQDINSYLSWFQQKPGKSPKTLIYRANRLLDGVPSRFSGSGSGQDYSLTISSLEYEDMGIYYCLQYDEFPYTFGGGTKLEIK", "unitsLabel": "%", "Inhibition rate (%)": 15.3}

Value source: patent US20210155689A1
